The reported numbers originate from patent US20220380371A1.

Target: wild type MLL1 four-member complex (MLL1-4C) (Homo sapiens, UniProt Q03164)
Assay: MLL1 LC-MS Assay
Format: biochemical
Settings: read-out: LCMS
Reported IC50 values for a set of compounds

INSERT INTO results (compound, assay_target, assay_value) VALUES
  ('Nc1ncnc2c1ncn2Cc1c(N2CC[C@](N)(C(=O)NC3CC3)C2)ccc(F)c1CN1CCCCC1', 'wild type MLL1 four-member complex (MLL1-4C) (Homo sapiens, UniProt Q03164)', '50 to 100 nM'),
  ('Nc1ncnc2c1ncn2Cc1c(N2CC[C@](N)(C(=O)NC3CC3)C2)ccc(Cl)c1C1CC1 (stereo in doubt)', 'wild type MLL1 four-member complex (MLL1-4C) (Homo sapiens, UniProt Q03164)', '< 50 nM'),
  ('Nc1ncnc2c1ncn2Cc1c(N2CC[C@](N)(C(=O)N3CCc4nocc4C3)C2)ccc(F)c1C(F)(F)F', 'wild type MLL1 four-member complex (MLL1-4C) (Homo sapiens, UniProt Q03164)', '> 100 nM'),
  ('CCCNC(=O)CCNC(=O)[C@@]1(N)CCN(c2ccc(F)c(C(F)(F)F)c2Cn2cnc3c(N)ncnc32)C1', 'wild type MLL1 four-member complex (MLL1-4C) (Homo sapiens, UniProt Q03164)', '50 to 100 nM'),
  ('Nc1ncnc2c1ncn2Cc1c(N2CC[C@](N)(C(=O)N[C@H]3C[C@@H]3c3ccccc3)C2)ccc(F)c1CN1CCOCC1', 'wild type MLL1 four-member complex (MLL1-4C) (Homo sapiens, UniProt Q03164)', '< 50 nM'),
  ('NC(=O)[C@@]1(N)CCN(c2cc(Cl)cc(-c3cccc(C4CCCCC4)c3)c2Cn2cnc3c(N)ncnc32)C1', 'wild type MLL1 four-member complex (MLL1-4C) (Homo sapiens, UniProt Q03164)', '> 100 nM');

Per the record, Nc1ncnc2c1ncn2Cc1c(CN2CCOCC2)c(F)cc(Cl)c1N1CC[C@](N)(C(=O)NC2CC2)C1 has IC50 of 50 to 100 nM

Per the record, Nc1ncnc2c1ncn2Cc1c(N2CC[C@](N)(C(=O)NC3CC3)C2)ccc(Cl)c1COC(F)F has IC50 of < 50 nM

Per the record, COC[C@@]1(N)CCN(c2cc(Cl)cc(Br)c2Cn2cnc3c(N)ncnc32)C1 has IC50 of > 100 nM

Per the record, CCn1ncnc1CNC(=O)[C@@]1(N)CCN(c2ccc(F)c(C(F)(F)F)c2Cn2cnc3c(N)ncnc32)C1 has IC50 of > 100 nM

Per the record, Nc1ncnc2c1ncn2Cc1c(N2CC[C@](N)(C(=O)NC3CC3)C2)ccc(F)c1CC(F)(F)F has IC50 of < 50 nM

====

Tested on: H3K4me3 in MV4-11 cells
Assay: MV4-11 H3K4me3 Cellular ELISA Assay
Type: cell-based
Settings: Homo sapiens, MV4-11, 48 h
pIC50: −log10 of the molar value.
Reported pIC50 values for a set of compounds

INSERT INTO measurements (compound, assay_target, measurement_name, assay_value) VALUES
  ('CN(C)Cc1c(Cl)cc(Cl)c(N2CC[C@](N)(C(=O)NC3CC3)C2)c1Cn1cnc2c(N)ncnc21', 'H3K4me3 in MV4-11 cells', 'pIC50', '< 5.52'),
  ('CCc1cc(-c2cnn(C)c2)cc(N2CC[C@](N)(C(=O)NC3CC3)C2)c1Cn1cnc2c(N)ncnc21', 'H3K4me3 in MV4-11 cells', 'pIC50', '5.52 to 5.72'),
  ('Nc1ncnc2c1ncn2Cc1c(N2CC[C@](N)(C(=O)NC3CC34CCOCC4)C2)ccc(F)c1C(F)(F)F (stereo partly drawn)', 'H3K4me3 in MV4-11 cells', 'pIC50', '> 5.72'),
  ('N#Cc1c(F)ccc(N2CC[C@](N)(C(=O)NC3CC3)C2)c1Cn1cnc2c(N)ncnc21', 'H3K4me3 in MV4-11 cells', 'pIC50', '5.52 to 5.72'),
  ('NC(=O)CCC1(N)CCN(c2cc(Cl)cc(Br)c2Cn2cnc3c(N)ncnc32)C1 (stereo not drawn)', 'H3K4me3 in MV4-11 cells', 'pIC50', '< 5.52'),
  ('CCc1cc(Cl)cc(N2CC[C@](N)(CO)C2)c1Cn1cnc2c(N)ncnc21', 'H3K4me3 in MV4-11 cells', 'pIC50', '> 5.72'),
  ('Nc1ncnc2c1ncn2Cc1c(N2CC[C@](N)(C(=O)N[C@@H]3C[C@H]3CO)C2)ccc(F)c1C(F)(F)F', 'H3K4me3 in MV4-11 cells', 'pIC50', '> 5.72'),
  ('C=Cc1cc(Cl)cc(N2CC[C@](N)(c3nc[nH]n3)C2)c1Cn1cnc2c(N)ncnc21', 'H3K4me3 in MV4-11 cells', 'pIC50', '> 5.72');

Per the record, C=Cc1c(F)ccc(N2CCC(N)(C(=O)NC3CC3)C2)c1Cn1cnc2c(N)ncnc21 (stereo not drawn) has pIC50 of > 5.72

Per the record, [2H]C([2H])([2H])OCc1c(Cl)ccc(N2CC[C@](N)(C(=O)NC3CC3)C2)c1Cn1cnc2c(N)ncnc21 has pIC50 of > 5.72

Per the record, Nc1ncnc2c1ncn2Cc1c(N2CC[C@](N)(C(=O)NC3CC3)C2)ccc(F)c1CN1CC(F)(F)C1 has pIC50 of > 5.72

Per the record, COC[C@@]1(N)CCN(c2ccc3ccccc3c2Cn2cnc3c(N)ncnc32)C1 has pIC50 of > 5.72

Per the record, Nc1ncnc2c1ncn2Cc1c(Br)c(Cl)cc(Cl)c1N1CC[C@](N)(C(=O)NC2CC2)C1 has pIC50 of > 5.72
